Origin of the recorded values: the supplement of paper PMC10883282

system: RD-ES; assay: relative viability vs DMSO control (72 h) (fraction); higher = more viable cells; settings: 3.333 µM
Counter-ions that a name gives are not always drawn.
Below, each of the compounds is paired with its reported relative viability value.
OBSERVABLE: relative viability

{"columns": ["COMPOUND", "READOUT VALUE"],
 "data": [
  ["CC(=O)Nc1cccc(-n2c(=O)n(C3CC3)c(=O)c3c(Nc4ccc(I)cc4F)n(C)c(=O)c(C)c32)c1", 0.957],
  ["Cc1cnc(Nc2ccc(OCCN3CCCC3)cc2)nc1Nc1cccc(S(=O)(=O)NC(C)(C)C)c1", 0.00883],
  ["CO[C@H]1C[C@@H]2CC[C@@H](C)[C@@](O)(O2)C(=O)C(=O)N2CCCC[C@H]2C(=O)O[C@H]([C@H](C)C[C@@H]2CC[C@@H](OP(C)(C)=O)[C@H](OC)C2)CC(=O)[C@H](C)/C=C(\\C)[C@@H](O)[C@@H](OC)C(=O)[C@H](C)C[C@H](C)/C=C/C=C/C=C/1C", 0.66],
  ["COc1cccc2c1C(=O)c1c(O)c3c(c(O)c1C2=O)C[C@@](O)(C(=O)CO)C[C@@H]3O[C@H]1C[C@H](N)[C@H](O)[C@H](C)O1 [Doxorubicin Hydrochloride]", 0.00453],
  ["N#CC[C@H](C1CCCC1)n1cc(-c2ncnc3[nH]ccc23)cn1", 0.941],
  ["C[C@@H]1COCCN1c1cc(-c2ccnn2C)c2ccnc(-c3ccn[nH]3)c2n1", 0.155],
  ["C=CC(=O)N1CCC[C@@H](n2nc(-c3ccc(Oc4ccccc4)cc3)c3c(N)ncnc32)C1", 0.957]
]}

====

test system: SW872; test: relative viability vs DMSO control (72 h) (fraction); higher = more viable cells; conditions: 3.333 µM
Structures can show the parent of a compound that is named as a salt.

{"columns": ["MOLECULE", "TESTED SYSTEM", "relative viability"],
 "data": [
  ["Cc1ccc(NC(=O)c2ccc(CN3CCN(C)CC3)cc2)cc1Nc1nc(-c2cccnc2)cs1", "SW872", 0.519],
  ["C=CC(=O)Nc1cccc(Oc2nc(Nc3ccc(N4CCN(C)CC4)cc3)nc3ccsc23)c1", "SW872", 0.873],
  ["Cn1cnc2c(F)c(Nc3ccc(Br)cc3F)c(C(=O)NOCCO)cc21", "SW872", 0.583],
  ["CC[C@H](Nc1ncnc2[nH]cnc12)c1nc2cccc(F)c2c(=O)n1-c1ccccc1", "SW872", 0.876],
  ["C[C@]1(O)C[C@@H](c2nc(-c3ccc4ccc(-c5ccccc5)nc4c3)c3c(N)nccn32)C1", "SW872", 0.821],
  ["O=C(Nc1cnn2ccc(N3CCC[C@@H]3c3cc(F)ccc3F)nc12)N1CC[C@H](O)C1", "SW872", 1.03],
  ["COc1cccc2c1C(=O)c1c(O)c3c(c(O)c1C2=O)C[C@@](O)(C(=O)CO)C[C@@H]3O[C@H]1C[C@H](N)[C@H](O)[C@H](C)O1 [Doxorubicin Hydrochloride]", "SW872", 0.213]
]}

====

Below, each of the compounds is paired with its reported relative viability value.
system: KHOS-NP; test: relative viability vs DMSO control (72 h) (fraction); higher = more viable cells; conditions: 0.01372 µM
OBSERVABLE: relative viability

{"columns": ["COMPOUND STRUCTURE STRING", "READOUT VALUE"],
 "data": [
  ["Nc1cc(C(F)(F)F)c(-c2cc(N3CCOCC3)nc(N3CCOCC3)n2)cn1", 1.07],
  ["C=CC(=O)N1CCC[C@@H](n2nc(-c3ccc(Oc4ccccc4)cc3)c3c(N)ncnc32)C1", 1.05],
  ["COc1cc2c(Oc3ccc4[nH]c(C)cc4c3F)ncnc2cc1OCCCN1CCCC1", 1.09],
  ["Cc1ccc(NC(=O)c2ccc(CN3CCN(C)CC3)cc2)cc1Nc1nc(-c2cccnc2)cs1", 1.06],
  ["Cn1cc(-c2cc3c(N4CCN(c5ncc([C@@](C)(N)c6ccc(F)cc6)cn5)CC4)ncnn3c2)cn1", 1.03],
  ["CCN1CCN(Cc2ccc(Nc3ncc(F)c(-c4cc(F)c5nc(C)n(C(C)C)c5c4)n3)nc2)CC1", 1.03],
  ["Cc1ccc(F)c(NC(=O)Nc2ccc(-c3cccc4[nH]nc(N)c34)cc2)c1", 1.05],
  ["CCc1cc2c(cc1N1CCC(N3CCOCC3)CC1)C(C)(C)c1[nH]c3cc(C#N)ccc3c1C2=O", 1.08],
  ["Cc1nc(-c2cn3c(n2)-c2ccc(-c4cnn(C(C)(C)C(N)=O)c4)cc2OCC3)n(C(C)C)n1", 1.04],
  ["COc1cc2nccc(Oc3ccc(NC(=O)Nc4cc(C)on4)c(Cl)c3)c2cc1OC", 1.07]
]}

====

test system: RD; experiment: relative viability vs DMSO control (72 h) (fraction); higher = more viable cells; details: 0.00457 µM
Below, each of the compounds is paired with its reported relative viability value.

{"columns": ["COMPOUND", "relative viability"],
 "data": [
  ["CC(=O)Nc1cccc(-n2c(=O)n(C3CC3)c(=O)c3c(Nc4ccc(I)cc4F)n(C)c(=O)c(C)c32)c1 [Trametinib]", 0.838],
  ["Cn1cnc2c(F)c(Nc3ccc(Br)cc3F)c(C(=O)NOCCO)cc21 [Binimetinib]", 0.89],
  ["CC(C)(C)c1cc(NC(=O)Nc2ccc(-c3cn4c(n3)sc3cc(OCCN5CCOCC5)ccc34)cc2)no1 [Quizartinib]", 1.08],
  ["Cc1cc(C)c(/C=C2\\C(=O)Nc3ccccc32)[nH]1 [Semaxanib]", 1.08],
  ["Cn1cc(-c2cc3c(N4CCN(c5ncc([C@@](C)(N)c6ccc(F)cc6)cn5)CC4)ncnn3c2)cn1 [Avapritinib]", 1.05],
  ["CC[C@H](Nc1ncnc2[nH]cnc12)c1nc2cccc(F)c2c(=O)n1-c1ccccc1 [Idelalisib]", 1.13],
  ["Cc1cc(Nc2ncnc3ccc(NC4=NC(C)(C)CO4)cc23)ccc1Oc1ccn2ncnc2c1 [Tucatinib]", 1.08],
  ["CNC(=O)c1cc(Oc2ccc(NC(=O)Nc3ccc(Cl)c(C(F)(F)F)c3)c(F)c2)ccn1 [Regorafenib]", 1.14],
  ["COc1c(OCCCN2CCOCC2)ccc2c1N=C(NC(=O)c1cnc(N)nc1)N1CCN=C21 [Copanlisib]", 0.77]
]}

====

tested on: RD-ES; assay: relative viability vs DMSO control (72 h) (fraction); higher = more viable cells; details: 0.04115 µM
OBSERVABLE: relative viability

{"columns": ["MOLECULE", "READOUT VALUE"],
 "data": [
  ["C=CC(=O)N1CCC[C@@H](n2nc(-c3ccc(Oc4ccccc4)cc3)c3c(N)ncnc32)C1 [Ibrutinib]", 0.988],
  ["C=CC(=O)N1CCC([C@@H]2CCNc3c(C(N)=O)c(-c4ccc(Oc5ccccc5)cc4)nn32)CC1 [Zanubrutinib]", 0.943],
  ["CC(C)N1CCN(Cc2cnc(-c3cc(-c4cccc5[nH]ccc45)cc4[nH]ncc34)o2)CC1 [Nemiralisib]", 1.02]
]}

====

system: VA-ES-BJ; assay: relative viability vs DMSO control (72 h) (fraction); higher = more viable cells; conditions: 0.04115 µM
OBSERVABLE: relative viability

{"columns": ["COMPOUND", "READOUT VALUE"],
 "data": [
  ["Cn1cc(-c2cc3c(N4CCN(c5ncc([C@@](C)(N)c6ccc(F)cc6)cn5)CC4)ncnn3c2)cn1 [Avapritinib]", 0.993],
  ["CC(C)(C)c1cc(NC(=O)Nc2ccc(-c3cn4c(n3)sc3cc(OCCN5CCOCC5)ccc34)cc2)no1 [Quizartinib]", 1.05],
  ["Cc1ccc(F)c(NC(=O)Nc2ccc(-c3cccc4[nH]nc(N)c34)cc2)c1 [Linifanib]", 1.08],
  ["COCc1c(-c2cc3cc(C)cc(OC)c3s2)c2c(N)ncnn2c1CN1CCNC(=O)C1 [Rogaratinib]", 1.03]
]}

====

tested on: SYO-1; assay: relative viability vs DMSO control (72 h) (fraction); higher = more viable cells; details: 10 µM
hey, just use Condition met if measured relative viability is less than 0.7, otherwise Condition not met

{"columns": ["COMPOUND STRUCTURE STRING", "CATEGORY LABEL"],
 "data": [
  ["COc1cc2nccc(Oc3ccc(NC(=O)Nc4cc(C)on4)c(Cl)c3)c2cc1OC", "Condition met"],
  ["Cc1cc(Nc2ncnc3ccc(NC4=NC(C)(C)CO4)cc23)ccc1Oc1ccn2ncnc2c1", "Condition not met"],
  ["C=CC(=O)N1CCC[C@@H](n2nc(-c3ccc(Oc4ccccc4)cc3)c3c(N)ncnc32)C1", "Condition met"],
  ["Nc1cc(C(F)(F)F)c(-c2cc(N3CCOCC3)nc(N3CCOCC3)n2)cn1", "Condition met"],
  ["CO[C@H]1C[C@@H]2CC[C@@H](C)[C@@](O)(O2)C(=O)C(=O)N2CCCC[C@H]2C(=O)O[C@H]([C@H](C)C[C@@H]2CC[C@@H](OP(C)(C)=O)[C@H](OC)C2)CC(=O)[C@H](C)/C=C(\\C)[C@@H](O)[C@@H](OC)C(=O)[C@H](C)C[C@H](C)/C=C/C=C/C=C/1C", "Condition met"],
  ["CN1CCC(COc2cnc(-c3cccc(Cn4nc(-c5cccc(C#N)c5)ccc4=O)c3)nc2)CC1", "Condition met"]
]}
